- measurement-description: Cytotoxicity against human multidrug-resistant CEM/ADR5000 cells expressing p-glycoprotein by resazurin assay
- Type: functional, cell-based
endpoint-label: pIC50
One number for each entry, as −log10 of the molar value.

Can you give me pIC50 for all of these, one by one?
1. COc1cc(CCCOC(=O)CCC(=O)O[C@@H]2O[C@@H]3O[C@@]4(C)CC[C@H]5[C@H](C)CC[C@@H]([C@H]2C)[C@@]35OO4)cc2cc(-c3ccc4c(c3)OCO4)oc12
2. COc1cc(CCCO)cc2cc(-c3ccc4c(c3)OCO4)oc12
3. C[C@H]1[C@H](OC(=O)CCC(=O)O)O[C@@H]2O[C@@]3(C)CC[C@H]4[C@H](C)CC[C@@H]1[C@@]24OO3 [ARTESUNATE]
4. COc1cccc2c1C(=O)c1c(O)c3c(c(O)c1C2=O)C[C@@](O)(C(=O)CO)C[C@@H]3O[C@H]1C[C@H](N)[C@H](O)[C@H](C)O1

Ans:
5.95
5.01
5.92
4.63

###

Please go through the items and note down their Ratio IC50.
- Tested on: CCRF-CEM
- measurement-description: Resistance ratio of IC50 for human multidrug-resistant CEM/ADR5000 cells expressing p-glycoprotein to IC50 for human CCRF-CEM cells
- Format: functional
Answers are plain numbers.

Q: Look up Ratio IC50 for this compound: `C[C@@H]1CC[C@H]2[C@@H](C)C(=O)O[C@@H]3O[C@@]4(C)CC[C@@H]1[C@]32OO4`
Ans: 0.73

Q: Now this one: C[C@H]1[C@H](OC(=O)CCC(=O)O)O[C@@H]2O[C@@]3(C)CC[C@H]4[C@H](C)CC[C@@H]1[C@@]24OO3 [ARTESUNATE]
Ans: 0.67

Q: Now this one: `COc1cccc2c1C(=O)c1c(O)c3c(c(O)c1C2=O)C[C@@](O)(C(=O)CO)C[C@@H]3O[C@H]1C[C@H](N)[C@H](O)[C@H](C)O1`
Ans: 2585

Q: Now this one: `COc1cc(CCCOC(=O)CCC(=O)O[C@@H]2O[C@@H]3O[C@@]4(C)CC[C@H]5[C@H](C)CC[C@@H]([C@H]2C)[C@@]35OO4)cc2cc(-c3ccc4c(c3)OCO4)oc12`
Ans: 6.12

Next:
Q: Look up Ratio IC50 for this compound: `COc1cc(CCCO)cc2cc(-c3ccc4c(c3)OCO4)oc12`
Ans: 1.7

The measured values listed here are drawn from ChEMBL document CHEMBL3124935.
